test: M. tuberculosis growth inhibition, HTS (AID 449762);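 further: bacterial growth assessed after seven days of incubation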; settings: M. tuberculosis H37Rv growth inhibition, 7H9 media; at 25 µM; stronger effect = higher value
Out of some 330,000 compounds screened, about 1,900 (0.58%) were called active. About 4% were inconclusive and are not listed. Not all results are given here. Potency and affinity values are given separately.
assay-endpoint: inhibition (%)

1. CCc1cccc2c(C(=O)CN3C(=O)NC4(CCCCCC4)C3=O)c[nH]c12 | -3.22
2. CCCCCCCCCCOC(=O)Cn1c(COc2ccccc2)[n+](C)c2ccccc21 | 49.6
3. CCCC12CN3CC(C)(CN(C1)C3c1ccco1)C2=O (centres undefined) | -1.36
4. COC(=O)c1ccc(CS(=O)(=O)c2ccc(C)cc2)o1 | 2.36
5. CCCCCCCCCCOC(=O)Cn1c(COc2ccccc2OC)[n+](C)c2ccccc21 | 54.7
6. CCCC12CN3CC(CCC)(CN(C1)C3c1ccco1)C2=O (centres undefined) | -6.51
7. NS(=O)(=O)c1ccc(NC2=CC(=O)C(=O)c3ccccc32)cc1 | 11.2
8. O=c1[nH]c(Nc2ccccc2)cc2ccccc12 | 0.07
9. CC(=O)c1ccc(OC(=O)COc2ccccc2)cc1 | -5.04

Provenance of the data: PubChem BioAssay AID449762
